Known CC50 of a selection of compounds
# Test system: Vero E6 viability, CellTiter-Glo luminescence, 72 h
# method_notes: viability loss in Vero E6 cells – cell-based, set 2, cytotoxicity control for PfM17LAP inhibitor project, dose response (AID 602227)
quantity_kind: CC50

- CN(O)C(=O)Cc1ccc(OCc2ccccc2)cc1: 24.8 µM
- CCCCc1ccc(CC(=O)NO)cc1: 34.7 µM
- CCCCOc1ccc(CCC(=O)NO)cc1: 29.1 µM
- CCCCCCCCCC(=O)NO: 25.2 µM
- CCCCOc1ccc(CC(=O)N(C)O)cc1: 27.2 µM
- O=C(Cc1ccc(Oc2ccccc2)cc1)NO: 32.4 µM

* * *

# method_notes: viability loss in Vero E6 cells – cell-based, set 2, cytotoxicity control for PfM17LAP inhibitor project, dose response (AID 602227)
# measurement_context: Vero E6 viability, CellTiter-Glo luminescence, 72 h; at 50 µM (top of the series)
Known viability of a selection of compounds
quantity_kind: viability (%)

* Cc1ccc(CC(=O)NO)cc1 | 102
* COC(=O)Cc1ccc(OCC(C)C)cc1 | 101
* CCC(C)Oc1ccc(CC(=O)OC)cc1 (stereo unspecified) | 102
* CCOc1ccc(CC(=O)NO)cc1 | 98.9
* CC(C)(C(=O)NO)c1ccccc1 | 102
* CCCCOc1ccc(CC(=O)O)cc1 | 88.7
* CCCCOc1ccc(CNc2c(N(O)Cc3ccccc3)c(=O)c2=O)cc1 | 92.8
* CCCOc1ccc(CC(=O)OC)cc1 | 94.9
* COC(=O)Cc1ccc(OCCN(C)C)cc1 | 94.5
* COc1ccc(CC(=O)NO)cc1 | 95.7
* CCCCOc1ccc(CNc2c(N(C)O)c(=O)c2=O)cc1 | 90
